Where these numbers come from: patent US20100298141A1

# Tested on: itchgrass
# assay overview: Test F preemergence test
# Type: in vivo, Rottboellia cochinchinensis
# condition set: 125 g ai/ha, preemergence, scale 0 to 100
# From the text: Seeds of plant species selected from bermudagrass (Cynodon dactylon), Surinam grass (Brachiaria decumbens), large crabgrass (Digitaria sanguinalis), green foxtail (Setaria viridis), goosegrass (Eleusine indica), johnsongrass (Sorghum halepense), kochia (Kochia scoparia), pitted morningglory (Ipomoea lacunosa), purple nutsedge (Cyperus rotundus), common ragweed (Ambrosia elation), mustard (Brassica nigra), guineagrass (Panicum maximum), […] […]
Below, each entry is listed alongside its reported Itchgrass plant response rating.

Input line: Hello, I am looking for reported Itchgrass plant response rating with itchgrass for Cn1nc(C(F)(F)F)c(C[S+]([O-])c2cccc[n+]2[O-])c1Cl (stereo not drawn) . Could you help?
Output line: 95

Input line: Consider next the molecule CCn1nc(C(F)(F)F)c(CS(=O)(=O)c2cc(C)cc[n+]2[O-])c1OCC(F)(F)F in the same way.
Output line: 75

Input line: Same lookup for Cc1cc[n+]([O-])c([S+]([O-])Cc2c(C(F)(F)F)nn(C)c2OCC(F)(F)F)c1 (racemic) , please.
Output line: 85
